Reference for the values: patent US7989464B2

measuredOn: hmGluR1 receptor (Homo sapiens)
Construct: expressed in transfected cells
experimentalDetails: IC50 determination: intracellular calcium mobilization (FLIPR) upon Quisqualate stimulation in CHO cells stably expressing hmGluR1
Type: cell-based
conditionInfo: against Quisqualate 1 μM (EC80), class symbols, read-out: mGIuR 1 IC50
pIC50: −log10 of the molar value.
endpointLabel: pIC50

Examples with answers:
[[record]]
compound = "O=c1c2sc3nccc(NCCc4ccccc4)c3c2ncn1C1CCCCC1 [72F]"
endpointlabel = "pIC50"
measvalue = "< 6.00"

[[record]]
compound = "CCCCc1nc2c(sc3nccc(N(C)C)c32)c(=O)n1-c1ccc(OC)cc1 [116G]"
endpointlabel = "pIC50"
measvalue = "6.00 to 6.82"

[[record]]
compound = "CN(C)c1c(C=O)cnc2sc3c(=O)n(C4CCCCC4)cnc3c12"
endpointlabel = "pIC50"
measvalue = "> 7.30"

[[record]]
compound = "COc1cccc(-n2cnc3c(sc4nccc(N(C)C)c43)c2=O)c1"
endpointlabel = "pIC50"
measvalue = "> 7.30"


Switching to the query record.
q: I'd like to know its pIC50. The compound in question is CNc1ccnc2sc3c(=O)n(-c4ccc(OC)c(F)c4)cnc3c12
a: > 7.30

---

Reported IC50 values follow for various compounds
measuredOn: hmGluR1 receptor (Homo sapiens, UniProt Q13255)
Construct: expressed in transfected cells
Sequence (Q13255 19-1194): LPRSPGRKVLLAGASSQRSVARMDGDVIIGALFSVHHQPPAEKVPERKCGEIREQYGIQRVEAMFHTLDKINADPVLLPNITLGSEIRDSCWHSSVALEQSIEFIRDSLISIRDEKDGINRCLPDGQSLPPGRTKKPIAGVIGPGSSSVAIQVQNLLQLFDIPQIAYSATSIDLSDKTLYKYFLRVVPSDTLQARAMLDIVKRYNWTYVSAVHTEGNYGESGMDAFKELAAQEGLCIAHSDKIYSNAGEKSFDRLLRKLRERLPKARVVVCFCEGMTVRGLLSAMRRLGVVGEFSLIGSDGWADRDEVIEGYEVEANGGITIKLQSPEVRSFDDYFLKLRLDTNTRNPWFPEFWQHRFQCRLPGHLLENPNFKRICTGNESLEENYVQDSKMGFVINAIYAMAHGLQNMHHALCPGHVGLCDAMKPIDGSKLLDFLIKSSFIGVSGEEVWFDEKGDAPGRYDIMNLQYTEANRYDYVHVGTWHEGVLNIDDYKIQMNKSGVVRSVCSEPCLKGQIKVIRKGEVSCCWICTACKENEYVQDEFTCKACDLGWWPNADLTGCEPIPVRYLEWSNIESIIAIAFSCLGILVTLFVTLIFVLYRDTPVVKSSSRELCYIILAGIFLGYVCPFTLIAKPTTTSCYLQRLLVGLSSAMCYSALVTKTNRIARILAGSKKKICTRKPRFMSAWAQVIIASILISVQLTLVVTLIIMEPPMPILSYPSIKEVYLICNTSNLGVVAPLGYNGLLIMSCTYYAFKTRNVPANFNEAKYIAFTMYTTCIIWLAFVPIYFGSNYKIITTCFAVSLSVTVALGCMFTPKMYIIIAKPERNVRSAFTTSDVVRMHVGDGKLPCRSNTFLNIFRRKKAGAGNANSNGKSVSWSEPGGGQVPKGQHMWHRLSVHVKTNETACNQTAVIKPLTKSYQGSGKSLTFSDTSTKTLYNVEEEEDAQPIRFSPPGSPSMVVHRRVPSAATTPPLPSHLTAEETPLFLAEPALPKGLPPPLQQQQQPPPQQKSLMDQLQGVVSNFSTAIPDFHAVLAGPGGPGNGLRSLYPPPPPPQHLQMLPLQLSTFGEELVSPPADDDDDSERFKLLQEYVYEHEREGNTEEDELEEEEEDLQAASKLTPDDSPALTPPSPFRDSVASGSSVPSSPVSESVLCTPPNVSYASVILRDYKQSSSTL
experimentalDetails: IC50 determination: intracellular calcium mobilization (FLIPR) upon Quisqualate stimulation in CHO cells stably expressing hmGluR1
Format: cell-based
conditionInfo: against Quisqualate 1 μM (EC80), FLIPR calcium mobilization, read-out: IC50 Class

[[record]]
compound = "COCCn1cnc2c(sc3ncnc(NCC(F)(F)F)c32)c1=O [95DY]"
measvalue = "> 1000 nM"

[[record]]
compound = "CCN(C)c1ccnc2sc3c(=O)n(-c4ccc(Cl)cc4)cnc3c12 [28IC]"
measvalue = "< 50 nM"

[[record]]
compound = "COCCNc1ncnc2sc3c(=O)n(CCOC)cnc3c12 [95DX]"
measvalue = "> 1000 nM"

[[record]]
compound = "O=c1c2sc3nccc(NCCCCO)c3c2ncn1-c1ccc(F)cc1 [28GU]"
measvalue = "< 50 nM"


Switching to the query record.
q: I'd like to know its IC50. The compound in question is CC(O)CCNc1ccnc2sc3c(=O)n(-c4ccc(Cl)cc4)cnc3c12 (centres unmarked) [28HM]
a: < 50 nM

---

measuredOn: hmGluR1 receptor (Homo sapiens)
Construct: expressed in transfected cells
experimentalDetails: IC50 determination: intracellular calcium mobilization (FLIPR) upon Quisqualate stimulation in CHO cells stably expressing hmGluR1
Assay type: cell-based
conditionInfo: against Quisqualate 1 μM (EC80), FLIPR calcium mobilization, read-out: IC50 Class
Reported IC50 values follow for various molecules

[[record]]
molecule = "CNc1c(Cl)cnc2sc3c(=O)n(-c4ccc(OC)cc4)cnc3c12 [compound 198]"
endpointlabel = "IC50"
measvalue = "< 50 nM"

[[record]]
molecule = "CNc1ncnc2sc3c(=O)n(-c4ccc(Cl)cc4)cnc3c12 [95DB]"
endpointlabel = "IC50"
measvalue = "< 50 nM"

[[record]]
molecule = "Cc1nc(N)c2c(n1)sc1c(=O)n(-c3ccc(F)cc3)cnc12 [95EW]"
endpointlabel = "IC50"
measvalue = "50 to 150 nM"

[[record]]
molecule = "O=c1c2sc3ncnc(NC4CC4)c3c2ncn1-c1ccc2c(c1)CCO2 [95DK]"
endpointlabel = "IC50"
measvalue = "< 50 nM"

[[record]]
molecule = "Cc1ccc(-n2cnc3c(sc4nccc(N5CC[C@@H](O)C5)c43)c2=O)cc1 [28CV]"
endpointlabel = "IC50"
measvalue = "> 1000 nM"

[[record]]
molecule = "CN(CC(O)CO)c1ccnc2sc3c(=O)n(-c4ccc(Br)cc4)cnc3c12 (centres unmarked) [28HU]"
endpointlabel = "IC50"
measvalue = "< 50 nM"

[[record]]
molecule = "Cc1ccc(-n2cnc3c(sc4ncc(Br)c(N)c43)c2=O)cc1 [173A]"
endpointlabel = "IC50"
measvalue = "< 50 nM"

[[record]]
molecule = "Cc1ccc(-n2cnc3c(sc4cnnc(NCC(F)(F)F)c43)c2=O)cc1 [167G]"
endpointlabel = "IC50"
measvalue = "> 1000 nM"

[[record]]
molecule = "C#CCNc1nc(C)nc2sc3c(=O)n(-c4ccc(OC)cc4)cnc3c12 [95FM]"
endpointlabel = "IC50"
measvalue = "50 to 150 nM"

[[record]]
molecule = "CNc1ncnc2sc3c(=O)n(-c4ccc(OC)cc4F)cnc3c12 [95BI]"
endpointlabel = "IC50"
measvalue = "< 50 nM"


q: Provide value of IC50 for this record tested with hmGluR1 receptor (Homo sapiens): CCNc1ccnc2sc3c(=O)n(-c4ccc(F)cc4)cnc3c12 [28HY]
a: < 50 nM

q: Provide value of IC50 for this record tested with hmGluR1 receptor (Homo sapiens): COc1ccc(-n2cnc3c(sc4nccc(OC)c43)c2=O)cc1F [28FX]
a: 150 to 1000 nM
